- System: isolated strips of guinea pig lung
- PROCEDURE TEXT: Antagonism of PAF-induced contraction of isolated strips of guinea pig lung
- EXPERIMENTAL CONTEXT: Cavia porcellus; agonist PAF; read-out: Anticontractile effect (lung), concentration range corresponding to the IC50 value
Record form. Attribute: IC50. Fill in for each entry.

Exercise: May I ask what IC50 has been recorded for COc1ccc(CC(C(=O)OC(C)C)P(=O)(OC)OC)cc1OC (centres unmarked) [Compound 41] ?
Solution: 1 to 3 µg/mL

Exercise: For the compound shown here, CCOP(=O)(OCC)C(C#N)Cc1ccc(OCc2ccccc2)c(OCc2ccccc2)c1 (centres unmarked) [Compound 11] , give the reported IC50.
Solution: 6 to 10 µg/mL

Exercise: Endpoint output: IC50 of CCOP(=O)(OCC)C(C#N)=Cc1cc(OC)ccc1OC [Compound 30] . Value?
Solution: 1 to 3 µg/mL

Exercise: Would you mind telling me what IC50 value was observed for CCOP(=O)(OCC)/C(C#N)=C/c1ccc(OC)c(OC)c1 [Compound 38] ?
Solution: < 0.1 µg/mL

Exercise: Returns the measured IC50 for the input compound. Input: CCOC(=O)C(Cc1ccc(OC(C)=O)c(OC(C)=O)c1)P(=O)(OCC)OCC (racemic) [Compound 61]
Solution: ~3 µg/mL

* * *

- System: isolated strips of guinea pig lung
- PROCEDURE TEXT: Antagonism of PAF-induced contraction of isolated strips of guinea pig lung
- EXPERIMENTAL CONTEXT: Cavia porcellus; agonist PAF; read-out: Anticontractile effect (lung), concentration range corresponding to the IC50 value
ENDPOINT: IC50

Exercise: Dear colleague, I am looking for the recorded IC50 of the following compound: CCOP(=O)(OCC)C(Cc1ccc(OS(C)(=O)=O)c(OS(C)(=O)=O)c1)C(=O)OC(C)C (stereo not drawn) [Compound 46]
Solution: 1 to 3 µg/mL

Exercise: Can you look up the measured IC50 of COP(=O)(OC)C(=Cc1ccc2c(c1)OCO2)C(=O)OC(C)C [Compound 42] for me?
Solution: 3 to 6 µg/mL

Exercise: Any idea what its IC50 is? The compound is CCOP(=O)(OCC)C(C#N)=Cc1ccc(OC)c(OCc2ccc(CBr)cc2)c1 [Compound 4]
Solution: 1 to 3 µg/mL

Exercise: Quick one: IC50 of CCOP(=O)(OCC)/C(C#N)=C\c1ccc(OC)c(OC)c1 [Compound 37] ?
Solution: 1 to 3 µg/mL

Exercise: Requested read-out: IC50. Entry: CCCCCCCCCCCCOc1cc(C=C(C#N)P(=O)(OCC)OCC)ccc1OC [Compound 1]
Solution: 1 to 3 µg/mL

Exercise: Looking for the measured IC50 of CCOP(=O)(OCC)C(C#N)=Cc1ccc(OC(C)=O)c(OC(C)=O)c1 [Compound 56] , can you help?
Solution: 1 to 3 µg/mL
